System: ATP;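 note: ATP exposure 15 min at 22 °C before imaging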
assay info: switch fluorescence ratio, 500 uM ATP over buffer (Cy3 cluster intensity, sum of 5 cycles each) (fold (ratio)); higher = stronger signal-on switching upon ATP binding; sequences stand for … in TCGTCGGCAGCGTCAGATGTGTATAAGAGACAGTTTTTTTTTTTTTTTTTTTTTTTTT…TC
experimental context: aptamer strand: ATP DNA aptamer (quencher-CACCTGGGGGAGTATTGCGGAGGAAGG + anchor), 100 nM annealed; ATP concentration: 500 uM
I'd appreciate it if you could supply switch fluorescence ratio values for the items below.
Give the value as a plain number.

According to the records, this sequence "GTGTGTTTAG" displays switch fluorescence ratio of 0.989

So, "ACCGTTTTTT" ? Its switch fluorescence ratio was 1

What the record says about "CTTCGTACAG" : switch fluorescence ratio is 1.02

Recorded result, "TGCAGGTCTT" , switch fluorescence ratio: 1

Entry "TAAGAAGGTC" ; switch fluorescence ratio = 1.01

Entry "TTGGTATGAC" ; switch fluorescence ratio = 0.988

switch fluorescence ratio for "GGGCATTGTT" is 1.02

Please fill in: switch fluorescence ratio reported for "TTATATTAAG" = 1.01

So, "TCGAAGTATC" ? Its switch fluorescence ratio was 1.12

Quick note, switch fluorescence ratio for "TTTATTTTCC" landed at 1.05

# switch fluorescence ratio of "AAACCGGGCA" = 1.22

Looking up "TGTAAACCGG" , I found its switch fluorescence ratio recorded as 1.07

Recorded result, "TCCAAAGAGG" , switch fluorescence ratio: 0.997

Entry "CAAAGGTTGC" ; switch fluorescence ratio = 1

# switch fluorescence ratio (sequence: "AGTTTGGCAC" ) is 1.05

Per the records, this sequence ( "TAGGATGGCT" ) has switch fluorescence ratio equal to 0.959

Sample "CATTGCTTGG" ; switch fluorescence ratio observed: 1.04

Lab note: "AGAAGGGGGC" gave switch fluorescence ratio of 0.989

Data point: "GCAGTGTGCT" ; switch fluorescence ratio = 0.982

Please fill in: switch fluorescence ratio reported for "CGCGCGGTGT" = 1.17

====

Record form. Attribute: switch fluorescence ratio. Fill in for each entry.
Tested on: ATP;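 note: ATP exposure 15 min at 22 °C before imaging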
assay info: switch fluorescence ratio, 500 uM ATP over buffer (Cy3 cluster intensity, sum of 5 cycles each) (fold (ratio)); higher = stronger signal-on switching upon ATP binding; sequences stand for … in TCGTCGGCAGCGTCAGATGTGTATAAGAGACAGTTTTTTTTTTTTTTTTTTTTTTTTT…TC
experimental context: aptamer strand: ATP DNA aptamer (quencher-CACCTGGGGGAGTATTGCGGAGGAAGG + anchor), 100 nM annealed; ATP concentration: 500 uM
// no unit, no text: just the number

switch fluorescence ratio recorded for this sequence, "CGGCGGGCAA" , is 1.81

For reference, reported switch fluorescence ratio for "TCAAAACGGC" stands at 1.07

Entry "GTGTTCTAAA" — recorded switch fluorescence ratio = 1.03

Kindly note the recorded switch fluorescence ratio for "TTGGCAGGGA" , which is 0.998

For reference, reported switch fluorescence ratio for "TTAATCTGAG" stands at 1.02

Entry "GGGGTCGGTG" , switch fluorescence ratio reported as 0.969

// "AGAGTTGTGG" : switch fluorescence ratio value = 0.982

Documented switch fluorescence ratio of "GGACCAGGGA" : 1

Measured switch fluorescence ratio of "GTTTGGAGGA" : 0.96

Value of measured switch fluorescence ratio for the entry "TTACTTAGGG" : 1.14

Kindly note the recorded switch fluorescence ratio for "GACCCGTCCA" , which is 0.995

So for "TGCCTTGCTT" , the logged switch fluorescence ratio turned out to be 1.01

Entry "GTATTAATTT" ; switch fluorescence ratio = 0.983

Field switch fluorescence ratio (entry "GGGGCGCGAC" ) reads 0.993

Memo: "AAGGGGTGGT" , reported switch fluorescence ratio: 0.989

GET /value?item= "GGGGGCTTCG" &field=switch fluorescence ratio returns 0.992

// sample "AAATCGTACG" , its switch fluorescence ratio was 0.988

Data point: "CAGGCGACTG" ; switch fluorescence ratio = 0.971

For record "AAGGGTGTGT" the listed switch fluorescence ratio is 0.961

Short answer for "GGGCATGTTA" : switch fluorescence ratio was 0.969

# sequence "ATAGAAGGTG" ; its switch fluorescence ratio = 1.43

Looking up "AGAATTACTT" , I see its switch fluorescence ratio listed as 1

switch fluorescence ratio in this record for "TTAATCGTGC" : 0.98

Field switch fluorescence ratio (entry "AATTTTAATT" ) reads 1

Item: "ACTGGGGGAG" | switch fluorescence ratio: 1.02

The recorded switch fluorescence ratio for "GGTTTTGGGT" is 0.978

Per the record, "TTTTATGC" has switch fluorescence ratio of 1.01

Recorded result, "ACAACGGCCG" , switch fluorescence ratio: 1.05

Given item "AAGTTCAGTT" , the value recorded as its switch fluorescence ratio is 1.01

switch fluorescence ratio recorded for this sequence, "CAGCCGTTTC" , is 1.03

"GGCCAAAGGG" yielded switch fluorescence ratio of 0.996

The reported value for "TTTTAGTCAT" in terms of switch fluorescence ratio is 1.01

The measured switch fluorescence ratio associated with "TTTCCCGGCT" reads 1.04

Entry "TAAGGTAAGG" , switch fluorescence ratio reported as 1.01

Field switch fluorescence ratio (entry "GGGTGTACCT" ) reads 1.04

In plain terms, "ACACGATTGG" has a documented switch fluorescence ratio of 0.991

Per the record, "TCATGTGCGG" has switch fluorescence ratio of 0.964

Reported switch fluorescence ratio of "TTTGGGGTG" : 1.04

Record summary for "AGAGGGTGTG" : reported switch fluorescence ratio = 0.992

Reported switch fluorescence ratio of "GAAGTTGTCA" : 1.02

Lookup result for "AGGTGATGGT" ; measured switch fluorescence ratio: 0.997

Quick note, switch fluorescence ratio for "TTGGAGATAG" landed at 1.07

"ATAATTGGTG" has a reported switch fluorescence ratio of 1.03

FYI, the data here is from the supplement of paper PMC10126150.
